Biological target: human DAGLβ (Homo sapiens)
Sequence (Q8NCG7 whole entry): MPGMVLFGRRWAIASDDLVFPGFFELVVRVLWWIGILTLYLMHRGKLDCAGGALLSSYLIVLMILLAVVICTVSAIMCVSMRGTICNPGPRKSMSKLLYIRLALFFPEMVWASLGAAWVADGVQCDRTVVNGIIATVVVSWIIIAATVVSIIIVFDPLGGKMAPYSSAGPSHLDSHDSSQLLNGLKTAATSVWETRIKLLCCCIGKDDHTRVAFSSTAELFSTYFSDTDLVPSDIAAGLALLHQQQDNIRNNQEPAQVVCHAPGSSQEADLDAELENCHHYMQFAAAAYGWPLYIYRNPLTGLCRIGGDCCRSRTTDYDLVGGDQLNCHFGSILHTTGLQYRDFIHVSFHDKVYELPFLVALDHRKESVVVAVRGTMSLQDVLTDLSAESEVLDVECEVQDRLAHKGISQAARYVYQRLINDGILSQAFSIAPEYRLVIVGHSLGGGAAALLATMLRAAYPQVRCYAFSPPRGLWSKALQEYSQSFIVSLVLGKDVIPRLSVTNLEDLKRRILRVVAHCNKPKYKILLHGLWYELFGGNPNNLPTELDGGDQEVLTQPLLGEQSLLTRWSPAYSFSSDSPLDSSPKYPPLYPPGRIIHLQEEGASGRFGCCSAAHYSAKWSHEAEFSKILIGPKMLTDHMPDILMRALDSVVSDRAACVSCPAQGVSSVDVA
Assay: in vitro inhibition of human DAGLβ activity
MEASUREMENT_KIND: pIC50
Worth noting: pIC50 values are minus log10 of concentrations stated in mol/L.

Fill blank: measured pIC50 of the molecule O=C(N1CCCCC1Cc1ccccc1)n1cc(-c2ccc(-c3ccccc3)cc2)nn1 (stereo not shown) is ____. 6.24

====

Molecular target: UniProt Q91WC9
Sequence (Q91WC9 whole entry): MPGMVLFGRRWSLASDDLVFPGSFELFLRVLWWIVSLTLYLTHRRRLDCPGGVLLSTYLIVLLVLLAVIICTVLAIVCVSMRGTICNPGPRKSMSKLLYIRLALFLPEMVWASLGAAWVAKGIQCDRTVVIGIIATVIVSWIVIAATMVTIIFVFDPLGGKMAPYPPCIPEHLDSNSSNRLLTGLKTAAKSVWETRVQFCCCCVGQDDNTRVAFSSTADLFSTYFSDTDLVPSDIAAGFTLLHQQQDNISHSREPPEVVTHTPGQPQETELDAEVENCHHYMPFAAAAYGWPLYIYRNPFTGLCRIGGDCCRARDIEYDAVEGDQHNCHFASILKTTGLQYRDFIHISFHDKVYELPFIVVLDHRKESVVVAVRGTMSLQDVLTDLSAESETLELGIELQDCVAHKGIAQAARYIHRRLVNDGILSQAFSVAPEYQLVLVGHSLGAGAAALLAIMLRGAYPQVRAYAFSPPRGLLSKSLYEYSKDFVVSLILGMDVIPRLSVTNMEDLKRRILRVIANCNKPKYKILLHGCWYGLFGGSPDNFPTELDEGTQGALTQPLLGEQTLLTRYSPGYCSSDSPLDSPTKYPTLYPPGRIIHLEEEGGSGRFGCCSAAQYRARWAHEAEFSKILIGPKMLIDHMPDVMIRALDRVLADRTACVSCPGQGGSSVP
Assay: inhibition of DAGLβ in transfected HEK293T lysate
Assay type: biochemical
MEASUREMENT_KIND: pIC50
# reply with the number alone; pIC50 is -log10 of concentration in mol/L

For UniProt Q91WC9, provide pIC50 of O=C(N1CCCCC1Cc1ccccc1)n1cc(-c2ccc(Br)cc2)nn1 (stereo not shown) [compound 31, KT116] please. 7.52
